Measured IC50 on human IRAK-4 (Homo sapiens (Human), UniProt Q9NWZ3) follows.
Sequence (Q9NWZ3 whole entry): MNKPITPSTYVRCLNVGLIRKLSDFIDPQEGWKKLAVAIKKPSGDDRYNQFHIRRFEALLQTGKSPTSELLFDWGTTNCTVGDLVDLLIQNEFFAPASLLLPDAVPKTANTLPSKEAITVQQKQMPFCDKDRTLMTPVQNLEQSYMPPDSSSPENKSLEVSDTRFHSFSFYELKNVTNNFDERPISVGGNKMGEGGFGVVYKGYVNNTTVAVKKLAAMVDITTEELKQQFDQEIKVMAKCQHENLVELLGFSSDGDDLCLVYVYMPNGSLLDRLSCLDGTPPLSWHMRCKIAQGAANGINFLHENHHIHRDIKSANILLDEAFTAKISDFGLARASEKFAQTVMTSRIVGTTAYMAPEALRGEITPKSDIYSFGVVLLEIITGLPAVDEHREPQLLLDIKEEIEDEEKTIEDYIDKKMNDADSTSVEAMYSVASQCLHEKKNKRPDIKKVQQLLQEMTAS
Readout Type: IC50 (nM)

In the examples that follow, each entry is paired with its recorded IC50.
[[record]]
molecule = "CCCOCc1ncc(-c2ccn3nc(NC(=O)[C@H]4C[C@@H](N5CCN(C(=O)c6cccc(C)n6)C[C@@H]5C)C4)cc3c2)cn1"
result_value = 1.84

[[record]]
molecule = "O=C(Nc1nc2ccc(-c3cnc(CO[C@H]4CC(F)(F)C[C@@H]4O)nc3)cc2s1)C1CC1"
result_value = 1.41

[[record]]
molecule = "CC(C)[C@H]1CN(C(=O)C2CCOC2)CCN1C1CC(C(=O)Nc2nc3ccc(-c4cnc(CO[C@H]5CCC[C@@H]5O)nc4)cc3s2)C1 (stereo partly drawn)"
result_value = 1.58

[[record]]
molecule = "CCCO[C@H]1C[C@@H](C(=O)Nc2nc3ccc(-c4cnc(CO[C@H]5CCC[C@@H]5O)nc4)cc3s2)C1"
result_value = 2.22

[[record]]
molecule = "C[C@H]1CN(C(=O)c2ccc(C(F)(F)F)cn2)CCN1[C@H]1C[C@@H](C(=O)Nc2nc3ccc(-c4cnc(CO[C@H]5CCC[C@@H]5O)nc4)cc3s2)C1"
result_value = 1.5

[[record]]
molecule = "C[C@H]1CN(C2CC(C(=O)Nc3nc4ccc(-c5cnc(CO[C@H]6CCC[C@@H]6O)nc5)cc4s3)C2)CCO1 (stereo partly drawn)"
result_value = 2.28

[[record]]
molecule = "O=C(Nc1nc2ccc(-c3cnc(CO[C@H]4CCC[C@@H]4O)nc3)cc2s1)C1CC(N2CC3CC(C2)O3)C1 (stereo partly drawn)"
result_value = 2.42

[[record]]
molecule = "C[C@H]1CN(C(=O)C2CCCO2)CCN1[C@H]1C[C@@H](C(=O)Nc2nc3ccc(-c4cnc(CO[C@H]5CCC[C@@H]5O)nc4)cc3s2)C1 (stereo partly drawn)"
result_value = 2.85


P = CCCOCc1ncc(-c2ccn3nc(NC(=O)[C@H]4C[C@@H](N5CCN(C(=O)C6CCOC6)C[C@@H]5CC)C4)cc3c2)cn1 (stereo partly drawn)
Q = COc1c(-c2cnc(CO[C@H]3CCC[C@@H]3O)nc2)ccc2nc(NC(=O)[C@H]3C[C@@](C)(O)C3)sc12
Rank P against Q by their IC50 values and give the higher one. # respond with the chosen item's label
Q
(Q: 4.64 nM, P: 1.81 nM)

---

biological target: human IRAK-4 (Homo sapiens (Human))
Readout Type: IC50 (nM)

[[record]]
compound = "O=C(Nc1nc2ccc(-c3cnc(CO[C@H]4CCC[C@@H]4O)nc3)cc2s1)C1CC(N2CCN(CC(F)(F)F)CC2)C1 (stereo partly drawn) [b-02-23]"
study_system = "human IRAK-4 (Homo sapiens (Human))"
readout_type = "IC50"
result_value = 2.52

[[record]]
compound = "CN(C1CC1)C1CC(C(=O)Nc2nc3ccc(-c4cnc(CO[C@H]5CCC[C@@H]5O)nc4)cc3s2)C1 (stereo partly drawn) [b-03-03]"
study_system = "human IRAK-4 (Homo sapiens (Human))"
readout_type = "IC50"
result_value = 1.43

[[record]]
compound = "O=C(Nc1nc2ccc(-c3cnc(CO[C@H]4CCC[C@@H]4O)nc3)cc2s1)C1CC(N2CC[C@H](F)C2)C1 (stereo partly drawn) [b-02-02]"
study_system = "human IRAK-4 (Homo sapiens (Human))"
readout_type = "IC50"
result_value = 2.79


A = C[C@H]1CN(C(=O)c2ccno2)CCN1[C@H]1C[C@@H](C(=O)Nc2nc3ccc(-c4cnc(CO[C@H]5CCC[C@@H]5O)nc4)cc3s2)C1 [b-04-33]
B = O=C(Nc1nc2ccc(-c3cnc(CO[C@H]4CCC[C@@H]4O)nc3)cc2s1)C1CC(N2CCC[C@@H]2C(F)(F)F)C1 (stereo partly drawn) [b-02-43]
C = C[C@H]1CN(C(=O)c2cc(F)ccn2)CCN1[C@H]1C[C@@H](C(=O)Nc2nc3ccc(-c4cnc(CO[C@H]5CCC[C@@H]5O)nc4)cc3s2)C1 [b-04-46]
Arrange these 3 compounds in increasing order of IC50. Submit the labels in the order that the ranking request calls for.
C, A, B
